Just for reference, patent US20090042785A1 is where these values come from.

Target: T1, human CTLA-4-Fc (Chimerigen) (human, UniProt P16410 36-161; P01857 99-330 = IgG part, limits assumed)
T1 construct: extracellular domain;domain: Fc portion; Bought protein; also called hCTLA-4-Fc; huCTLA-4-Ig
T1 sequence (P16410 other isoform, or with tags, fused parts or gaps mutant limits assumed): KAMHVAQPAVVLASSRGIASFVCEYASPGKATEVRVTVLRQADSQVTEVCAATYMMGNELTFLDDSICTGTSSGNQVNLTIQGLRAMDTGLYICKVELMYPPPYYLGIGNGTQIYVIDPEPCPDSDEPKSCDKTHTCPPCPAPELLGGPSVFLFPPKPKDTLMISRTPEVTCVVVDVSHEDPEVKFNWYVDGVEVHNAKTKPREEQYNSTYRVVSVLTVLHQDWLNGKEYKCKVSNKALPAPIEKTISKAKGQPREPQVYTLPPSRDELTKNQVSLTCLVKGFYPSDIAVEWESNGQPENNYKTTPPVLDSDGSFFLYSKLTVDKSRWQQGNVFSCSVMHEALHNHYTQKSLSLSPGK
Assay: SPR as in Example 9
Readings of kon for the listed binders
Report only the number, with the unit M⁻¹ s⁻¹ understood.

{"BINDER": "hNGAL mutein S140.4-O10 without T7 tag (designed binder, also called S140.4-O10 (-T7 tag); S140.4-O10(-T7)) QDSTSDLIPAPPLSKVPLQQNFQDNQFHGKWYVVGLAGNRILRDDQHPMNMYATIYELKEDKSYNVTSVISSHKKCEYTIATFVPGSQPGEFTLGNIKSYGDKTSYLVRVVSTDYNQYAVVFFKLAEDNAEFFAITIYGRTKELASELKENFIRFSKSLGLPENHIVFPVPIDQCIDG", "kon, M⁻¹ s⁻¹": 27700}

Q) Which kon value is on record for hNGAL mutein S140.2-P24 (designed binder, tagged entry not tied to the name; not shown: N-terminal T7 detection tag from vector phNGAL37; C-terminal Strep-tag II from vector phNGAL37) QDSTSDLIPAPPLSKVPLQQNFQDNQFHGKWYVVGLAGNRILRDDQHPMDMYATIYELKEDKSYNVTSVISSHKKCEYTIATFVPGSQPGEFTLGNIKSYGDKTSYLVRVVSTDYSQYAVVFFKLAEDNAEFFAITIYGRTKELASELKENFIRFSKSLGLPENHIVFPVPIDQCIDG ?
A) 14000

Q) # kon lookup, item hNGAL mutein S140.3-P07 (designed binder, tagged entry not tied to the name; not shown: N-terminal T7 detection tag from vector phNGAL37; C-terminal Strep-tag II from vector phNGAL37) QDSTSDLIPAPPLSKVPLQQNFQDNQFHGKWYVVGLAGNRILRDDQHPMNMYATIYELKEDKSYNVTSVIFPHKKCEYTIATFVPGSQPGEFTLGNIKSYGDKTSYLVRVVSTDYNQYAVVFFKLAEDDAEFFAITIYGRTKELASELKENFIRFSKSLGLPENHIVFPVPIDQCIDG
A) 11000
